- Assay System: 5-hydroxytryptamine receptor 1B (Homo sapiens, UniProt P28222)
- Sequence (P28222 whole entry): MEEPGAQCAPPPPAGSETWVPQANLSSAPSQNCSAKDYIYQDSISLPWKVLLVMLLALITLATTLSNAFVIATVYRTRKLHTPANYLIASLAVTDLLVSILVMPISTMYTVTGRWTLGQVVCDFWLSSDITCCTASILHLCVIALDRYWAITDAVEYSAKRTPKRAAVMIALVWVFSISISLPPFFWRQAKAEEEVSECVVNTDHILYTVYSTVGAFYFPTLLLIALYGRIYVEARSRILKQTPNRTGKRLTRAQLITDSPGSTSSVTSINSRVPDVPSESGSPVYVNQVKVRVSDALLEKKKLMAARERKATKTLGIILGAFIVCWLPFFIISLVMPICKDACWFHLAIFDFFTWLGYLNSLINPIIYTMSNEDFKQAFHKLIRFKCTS
Metric Name: Ki (µM)
Numbers only, in µM.

Reference set (4 entries):
Identify measured Ki corresponding to CNCCOc1ccc(Cl)cc1Cl
2.75

Identify measured Ki corresponding to CNC(C)COc1c(Br)cccc1Br.O=C(O)C(=O)O (racemic)
0.0715

Identify measured Ki corresponding to CNC(C)COc1cccc(Oc2ccccc2)c1 (racemic)
0.752

Identify measured Ki corresponding to CN1CCN(CCOc2ccc(Br)cc2Br)CC1
1.46

Hi there! I need Ki for each item below, if you can.
1. CNC(C)COc1ccc(Br)cc1Br (racemic)
2. CNC(C)COc1cc(Cl)ccc1Cl.O=C(O)C(=O)O (racemic)
3. CNCCOc1cc(Cl)ccc1Cl
4. CN1CCN([C@H](COc2cccc(Cl)c2Cl)c2ccccc2)CC1

[2.32, 6.69, 3.64, 0.912]

====

- Assay System: 5-hydroxytryptamine receptor 1D (Homo sapiens, UniProt P28221)
- Sequence (P28221 whole entry): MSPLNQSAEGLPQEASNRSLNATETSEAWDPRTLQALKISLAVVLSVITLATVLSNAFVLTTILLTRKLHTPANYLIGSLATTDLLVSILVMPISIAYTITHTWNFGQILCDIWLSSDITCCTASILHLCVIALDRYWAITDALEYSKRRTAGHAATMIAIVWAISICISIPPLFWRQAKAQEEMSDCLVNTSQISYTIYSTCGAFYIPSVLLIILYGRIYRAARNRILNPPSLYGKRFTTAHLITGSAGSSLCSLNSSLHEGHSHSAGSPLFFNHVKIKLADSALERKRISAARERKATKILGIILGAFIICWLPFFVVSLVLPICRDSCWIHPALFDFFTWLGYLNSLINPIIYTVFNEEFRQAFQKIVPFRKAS
- Method Description: Binding affinity to Homo sapiens (human) 5HT1D receptor by radioligand binding assay
Metric Name: pKi
Answers are plain numbers, as −log10 of the molar value.

Reference set (6 entries):
Identify measured pKi corresponding to CNC(C)COc1ccc(Br)cc1Br (racemic)
5.95

Identify measured pKi corresponding to CNC(C)COc1c(Br)cccc1Br.O=C(O)C(=O)O (racemic)
6.65

Identify measured pKi corresponding to CNCCOc1ccc(Br)cc1Br
5.91

Identify measured pKi corresponding to CNC(C)COc1cc(Cl)ccc1Cl.O=C(O)C(=O)O (racemic)
5.27

Identify measured pKi corresponding to CN[C@H](COc1cccc(Cl)c1Cl)c1ccccc1
5.11

Identify measured pKi corresponding to CNC(C)COc1cccc(Oc2ccccc2)c1 (racemic)
6.41

Proceeding to the next molecule to report its pKi.
Identify measured pKi corresponding to CNCCOc1cc(Cl)ccc1Cl
5.42
